Assay: CHI Log D procedure
Format: physicochemical
Details: pH 7.4
measured parameter: CHI Log D
The answer should be written as a number, with no unit following it.

# count of solved cases: 5
- molecule: "CC(=O)N[C@@H](Cc1ccccc1)C(=O)N[C@@H](CC(=O)O)C(=O)N[C@@H](C)C(=O)N[C@]1(C)CCCCCCC=CCOC(=O)N2CC[C@@](C(=O)N[C@@H](Cc3ccccc3)C(=O)N[C@@H](Cc3c[nH]c4ccccc34)C(=O)N[C@@H](CCC(N)=O)C(N)=O)(C2)NC(=O)[C@H](C(C)C)NC(=O)[C@H](CCc2ccc(O)cc2)NC(=O)[C@H](C)NC(=O)[C@H](C)NC(=O)[C@H](CC(=O)O)NC(=O)[C@H](CC(=O)O)NC1=O [I-119]"
  CHI Log D: 1.17
- molecule: "CC(=O)N1CCC[C@]12CC=CCCCC1(CCCC=CCCCCCC[C@@](C)(C(=O)N[C@@H](Cc3ccc(Cl)cc3)C(=O)N[C@@H](Cc3c[nH]c4ccccc34)C(=O)N[C@@H](CCC(N)=O)C(N)=O)NC(=O)[C@H](C(C)C)NC(=O)[C@H](Cc3ccccc3)NC(=O)[C@H](C)NC(=O)[C@H](C)NC(=O)[C@H](CC(=O)O)NC(=O)[C@H](CC(=O)O)NC1=O)NC(=O)[C@H](C)NC(=O)[C@H](CC(=O)O)NC2=O (stereo partly shown)"
  CHI Log D: 2.159
- molecule: "CC(=O)N[C@@H](Cc1ccccc1)C(=O)N[C@@H](CC(=O)O)C(=O)N[C@@H](C)C(=O)N[C@]1(C)CCCCCCC=CCOC(=O)N2CC[C@@](C(=O)N[C@@H](Cc3ccc(C(N)=O)cc3)C(=O)N[C@@H](Cc3c[nH]c4ccccc34)C(=O)N[C@@H](CCC(N)=O)C(N)=O)(C2)NC(=O)[C@H](C(C)C)NC(=O)[C@H](Cc2ccccc2)NC(=O)[C@H](C)NC(=O)[C@H](C)NC(=O)[C@H](CC(=O)O)NC(=O)[C@H](CC(=O)O)NC1=O"
  CHI Log D: 0.967
- molecule: "CC(=O)N[C@@H](Cc1ccccc1)C(=O)N[C@@H](CC(=O)O)C(=O)N[C@@H](C)C(=O)N[C@]1(C)CCCCCCC=CCOC(=O)N2CC[C@@](C(=O)N[C@@H](Cc3ccccc3)C(=O)N[C@@H](Cc3c[nH]c4ccccc34)C(=O)N[C@@H](CCC(N)=O)C(N)=O)(C2)NC(=O)[C@H](C(C)C)NC(=O)[C@H](CC2CCCC2)NC(=O)[C@H](C)NC(=O)[C@H](C)NC(=O)[C@H](CC(=O)O)NC(=O)[C@H](CC(=O)O)NC1=O (single isomer, unassigned)"
  CHI Log D: 1.343
- molecule: "CC(=O)N1CCC[C@]12CC=CCCCC1(CCCC=CCCCCCC[C@@](C)(C(=O)N[C@@H](Cc3ccsc3)C(=O)N[C@@H](Cc3csc4ccccc34)C(=O)N[C@@H](CCC(N)=O)C(N)=O)NC(=O)[C@H](CC(N)=O)NC(=O)[C@H](Cc3ccccc3)NC(=O)[C@H](C)NC(=O)[C@H](C)NC(=O)[C@H](CN(CC(=O)O)CC(F)(F)F)NC(=O)[C@H](CC(=O)O)NC1=O)NC(=O)[C@H](CC1CCCCC1)NC(=O)[C@H](CC(=O)O)NC2=O (stereo partly shown) [I-708]"
  CHI Log D: 2.976

Please give the measured CHI Log D for this molecule: CC(=O)N1CCC[C@]12CC=CCCCC1(CCCC=CCCCCCC[C@@](C)(C(=O)N[C@@H](Cc3ccccc3)C(=O)N[C@@H](Cc3csc4ccccc34)C(=O)N[C@@H](CCC(N)=O)C(N)=O)NC(=O)[C@H](C)NC(=O)[C@H](Cc3c[nH]cn3)NC(=O)[C@H](C)NC(=O)[C@H](C)NC(=O)[C@H](CC(=O)O)NC(=O)[C@H](CC(=O)O)NC1=O)NC(=O)[C@H](C)NC(=O)[C@H](CC(=O)O)NC2=O (stereo partly shown) [I-363]
2.09

Please give the measured CHI Log D for this molecule: CC[C@H](C)[C@H](NC(=O)[C@H](Cc1c[nH]cn1)NC(=O)[C@H](Cc1csc2ccccc12)NC(=O)[C@H](Cc1ccccc1)NC(=O)[C@]1(C)CCCCCCC=CCCCC2(CCCC=CC[C@]3(CCCN3C(C)=O)C(=O)N[C@@H](CC(=O)O)C(=O)N[C@@H](CC(C)C)C(=O)N2)C(=O)N[C@@H](CC(=O)O)C(=O)N[C@@H](CCC(=O)O)C(=O)N[C@@H](C)C(=O)N[C@@H](C)C(=O)N[C@@H](Cc2ccccc2)C(=O)N[C@@H](CC(N)=O)C(=O)N1)C(N)=O (stereo partly shown) [I-740]
2.822

Please give the measured CHI Log D for this molecule: CC(=O)N1CCC[C@]12CC=CCCCC1(CCCC=CCCCCCC[C@@](C)(C(=O)N[C@@H](Cc3ccccc3)C(=O)N[C@@H](Cc3c[nH]c4ccccc34)C(=O)N[C@@H](CCC(N)=O)C(N)=O)NC(=O)[C@H](C(C)C)NC(=O)[C@H](Cc3ccco3)NC(=O)[C@H](C)NC(=O)[C@H](C)NC(=O)[C@H](CC(=O)O)NC(=O)[C@H](CC(=O)O)NC1=O)NC(=O)[C@H](C)NC(=O)[C@H](CC(=O)O)NC2=O (stereo partly shown) [I-328]
1.983

Please give the measured CHI Log D for this molecule: CC[C@H](C)[C@@H]1NC(=O)[C@H](CC(=O)O)NC(=O)[C@]2(CC=CCCCC3(CCCC=CCCCCCC[C@@](C)(C(=O)N[C@@H](Cc4ccccc4)C(=O)N[C@@H](Cc4csc5ccccc45)C(=O)N[C@@H](CCC(N)=O)C(N)=O)NC(=O)[C@H](CCC(N)=O)NC(=O)[C@H](Cc4ccccc4)NC(=O)[C@H](C)NC(=O)[C@H](C)NC(=O)[C@H](CCC(=O)O)NC(=O)[C@H](CNS(=O)(=O)C(F)(F)F)NC3=O)NC1=O)CCCN2C(C)=O (stereo partly shown) [I-630]
4.36

Please give the measured CHI Log D for this molecule: CC[C@H](C)[C@@H]1NC(=O)[C@H](CC(=O)O)NC(=O)[C@]2(CC=CCCCC3(CCCC=CCCCCCC[C@@](C)(C(=O)N[C@@H](Cc4ccccc4)C(=O)N[C@@H](Cc4csc5ccccc45)C(=O)N[C@@H](CCC(N)=O)C(N)=O)NC(=O)[C@H](CCC(N)=O)NC(=O)[C@H](Cc4ccccc4)NC(=O)[C@H](CC(C)C)NC(=O)[C@H](C)NC(=O)[C@H](CCC(=O)O)NC(=O)[C@H](CC(=O)O)NC3=O)NC1=O)CCCN2C(C)=O (stereo partly shown) [I-658]
2.859

====

Target: beta-catenin/TCF4 engagement (Homo sapiens, UniProt P35222)
Construct: expressed in transfected cells; host or cells: HEK293
Sequence (P35222 1-781): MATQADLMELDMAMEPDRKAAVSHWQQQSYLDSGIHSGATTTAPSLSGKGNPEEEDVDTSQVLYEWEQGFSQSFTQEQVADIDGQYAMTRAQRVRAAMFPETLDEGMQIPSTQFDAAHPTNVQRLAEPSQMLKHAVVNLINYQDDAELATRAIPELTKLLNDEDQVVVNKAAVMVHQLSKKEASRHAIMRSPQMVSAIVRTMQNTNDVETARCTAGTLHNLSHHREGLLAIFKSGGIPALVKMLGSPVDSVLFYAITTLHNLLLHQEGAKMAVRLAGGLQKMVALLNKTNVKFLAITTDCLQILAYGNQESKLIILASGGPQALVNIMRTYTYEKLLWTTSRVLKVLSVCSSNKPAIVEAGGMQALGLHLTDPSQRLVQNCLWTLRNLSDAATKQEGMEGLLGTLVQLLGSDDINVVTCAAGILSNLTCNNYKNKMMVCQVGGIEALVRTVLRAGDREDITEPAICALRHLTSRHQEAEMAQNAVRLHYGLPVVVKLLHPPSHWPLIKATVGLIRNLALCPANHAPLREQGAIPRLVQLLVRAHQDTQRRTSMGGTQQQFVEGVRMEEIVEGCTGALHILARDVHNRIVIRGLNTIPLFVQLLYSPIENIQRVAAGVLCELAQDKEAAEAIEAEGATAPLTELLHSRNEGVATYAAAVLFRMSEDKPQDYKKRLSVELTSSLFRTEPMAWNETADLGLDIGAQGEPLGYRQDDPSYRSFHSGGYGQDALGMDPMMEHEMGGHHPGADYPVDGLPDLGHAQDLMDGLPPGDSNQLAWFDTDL
Assay: Nano-BRET target engagement assay (B-cat-Halo & TCF4-Luc in HEK293 cells)
Type: cell-based
Conditions: read-out: NanoBRET Abs IC50
measured parameter: IC50 (µM)
Reply with just the number (in µM).

- molecule: "CC(=O)N1CCC[C@]12CC=CCCCC1(CCCC=CCCCOC(=O)N3CC[C@@](C(=O)N[C@@H](Cc4ccccc4Cl)C(=O)N[C@@H](Cc4csc5ccccc45)C(=O)N[C@@H](CCC(N)=O)C(N)=O)(C3)NC(=O)[C@H](CC(N)=O)NC(=O)[C@H](Cc3ccccc3)NC(=O)[C@H](C)NC(=O)[C@H](C)NC(=O)[C@H](CC(=O)O)NC(=O)[C@H](CC(=O)O)NC1=O)NC(=O)[C@H](CC(C)(C)C)NC(=O)[C@H](CC(=O)O)NC2=O (some centres unmarked)"
  measured parameter: "IC50"
  numeric result: 6.2

Next item in the queue.
Please give the measured IC50 for this molecule: CC(=O)N1CCC[C@]12CC=CCCCC1(CCCC=CCCCOC(=O)N3CC[C@@](C(=O)N[C@@H](Cc4ccccc4C(F)(F)F)C(=O)N[C@@H](Cc4csc5ccccc45)C(=O)N[C@H](C)C(N)=O)(C3)NC(=O)[C@H](CC(C)C)NC(=O)[C@H](Cc3ccccc3)NC(=O)[C@H](C)NC(=O)[C@H](C)NC(=O)[C@H](Cc3cccc(C(=O)O)c3)NC(=O)[C@H](CC(=O)O)NC1=O)NC(=O)[C@H](CC(C)(C)C)NC(=O)[C@H](CC(=O)O)NC2=O (some centres unmarked)
6.2
